Give pEC50 (Vero) for every item shown.
Test system: host Vero cell
Assay: Vero host cell toxicity in the intracellular T. cruzi assay
Type: cell-based
Conditions: individual replicate
Description: T. cruzi intracellular potency and rate-of-kill assay (high content imaging) ^1 Silvio X10/7 T. cruzi trypomastigotes were incubated at 37°C 5% CO2 with 1.6×10^7 Vero cells overnight at MOI10 in MEM media supplemented with 10% foetal calf serum (FCS). Extracellular parasites were removed by aspirating cell culture supernatant, and washing Vero monolayer with 10 ml serum-free MEM three times. […]

Kindly indicate its recorded pEC50 (Vero). Item: CC(C)N(C(=O)CN1C(=O)C(N)C(=O)N(c2ccccc2)c2ccccc21)c1ccccc1 (racemic) [Compound 14]
< 4.3

Kindly indicate its recorded pEC50 (Vero). Item: CC(C)N(C(=O)CN1C(=O)C(N)C(=O)N(c2ccccc2)c2ccccc21)c1ccccc1 (single isomer, unassigned) [14-Ent 2]
< 4.3

Kindly indicate its recorded pEC50 (Vero). Item: CC(C)N(C(=O)CN1C(=O)C(N)C(=O)N(c2ccccc2)c2ccccc21)c1ccccc1 (single isomer, unassigned) [14-Ent 1]
< 4.3

Kindly indicate its recorded pEC50 (Vero). Item: COc1ccc(CN2C(=O)C(N)C(=O)N(c3ccc(OC)nc3)c3ccccc32)cc1 (stereo not shown)
4.4

Each recorded value in this set is attributed to paper PMC12208134.
